B1: tRNA (parent)
chain: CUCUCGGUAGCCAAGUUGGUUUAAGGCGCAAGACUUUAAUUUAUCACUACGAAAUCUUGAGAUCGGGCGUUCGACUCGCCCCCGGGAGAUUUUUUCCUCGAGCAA

- Variants of: B1
- PROTOCOL DESCRIPTION: nonsense suppression (GFP-seq) (ratio to wild type); higher = more function; SUP4oc tRNA, yeast GFP reporter sort-seq
Fewer inactive variants are shown than the library holds.
OBSERVED PROPERTY: nonsense suppression
One number for each entry.

Examples with their reported nonsense suppression follow.
MUTATION NOTATION: U4C A13U G78A
MEASURED RESULT: 0.424
--
MUTATION NOTATION: U21G G65A
MEASURED RESULT: 0.0483
--
MUTATION NOTATION: A30U G84U
MEASURED RESULT: 0.423
--
MUTATION NOTATION: G28U G78A
MEASURED RESULT: 0.0292
--
MUTATION NOTATION: U4G U71A
MEASURED RESULT: 0.0967
--
MUTATION NOTATION: U16C U21C A31U
MEASURED RESULT: 0.204

# per-item lookup of nonsense suppression; items listed below
1. C12U U76A
2. U55C U63A C75G
3. A9U G73A
4. A13U C72G

Ans:
0.244
0.0265
0.0814
0.032
